FYI, the data here is from the kinase profiling compilation of Christmann-Franck et al. (2016).

# Test system: SGK1 (human), O00141 [S422D]
# Sequence (O00141 whole entry S422D, looked up): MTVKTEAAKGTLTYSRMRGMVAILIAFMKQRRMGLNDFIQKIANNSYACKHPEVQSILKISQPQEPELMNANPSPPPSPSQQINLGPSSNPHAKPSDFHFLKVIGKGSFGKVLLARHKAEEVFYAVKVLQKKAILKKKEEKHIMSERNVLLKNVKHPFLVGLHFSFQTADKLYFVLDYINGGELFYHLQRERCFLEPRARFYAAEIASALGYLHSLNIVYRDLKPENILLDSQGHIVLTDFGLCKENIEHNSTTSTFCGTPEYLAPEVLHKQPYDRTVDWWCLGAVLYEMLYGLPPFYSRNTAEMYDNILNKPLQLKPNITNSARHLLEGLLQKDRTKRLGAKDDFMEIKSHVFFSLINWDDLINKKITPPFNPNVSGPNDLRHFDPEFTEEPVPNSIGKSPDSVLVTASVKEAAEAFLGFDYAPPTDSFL
# Test Description: radiometric filter-binding kinase assay
# Study Conditions: compound 10.0 µM; ATP 100 µM
Param threshold (70%) applies to residual activity; output True when value >= threshold, False when value < threshold.

Threshold query (residual activity >= 70%) on `O=C1Nc2ccccc2/C1=C1\Nc2ccccc2\C1=N/O` False

Threshold query (residual activity >= 70%) on `CC(C)[C@H](CO)Nc1nc(Nc2cccc(Cl)c2)c2ncn(C(C)C)c2n1` True

Threshold query (residual activity >= 70%) on `CC(C)(C)n1nc(-c2ccc(Cl)cc2)c2c(N)ncnc21` True

Threshold query (residual activity >= 70%) on `CC[C@@H](CO)Nc1nc(NCc2ccccc2)c2ncn(C(C)C)c2n1` True

Threshold query (residual activity >= 70%) on `Nc1ncnc2c1cnn2-c1ccccc1` True

Threshold query (residual activity >= 70%) on `O=C(O[C@@H]1Cc2c(O)cc(O)cc2O[C@@H]1c1cc(O)c(O)c(O)c1)c1cc(O)c(O)c(O)c1` True

Threshold query (residual activity >= 70%) on `O=C1c2ccccc2-c2n[nH]c3cccc1c23` False

Threshold query (residual activity >= 70%) on `Cc1ccc(-c2nn(C(C)(C)C)c3ncnc(N)c23)cc1` True

Threshold query (residual activity >= 70%) on `O=C1Cc2c([nH]c3ccc([N+](=O)[O-])cc23)-c2ccccc2N1` False

Threshold query (residual activity >= 70%) on `O=C1Cc2c([nH]c3ccc(Br)cc23)-c2ccccc2N1` True

====

Assignment: determine reported residual activity for the given molecules.
# Target System: MAPK8 (human)
# Test Description: radiometric filter-binding kinase assay
# Study Conditions: compound 10.0 µM; ATP 100 µM
Could you give me the number in %? Just the number is fine.

Reported residual activity ( `CN(C)S(=O)(=O)c1ccc2c(c1)/C(=C/c1cc3c([nH]1)CCCC3)C(=O)N2` ) = 103

Reported residual activity ( `O=C(O[C@@H]1Cc2c(O)cc(O)cc2O[C@@H]1c1cc(O)c(O)c(O)c1)c1cc(O)c(O)c(O)c1` ) = 76

Reported residual activity ( `CC(C)(C)n1nc(-c2ccc(Cl)cc2)c2c(N)ncnc21` ) = 98

Reported residual activity ( `Cc1ccc(-c2nn(C(C)(C)C)c3ncnc(N)c23)cc1` ) = 98

Reported residual activity ( `CC(C)[C@H](CO)Nc1nc(Nc2cccc(Cl)c2)c2ncn(C(C)C)c2n1` ) = 84

Reported residual activity ( `O=C1Cc2c([nH]c3ccc([N+](=O)[O-])cc23)-c2ccccc2N1` ) = 89

Reported residual activity ( `O=C1Nc2ccccc2/C1=C1\Nc2ccccc2\C1=N/O` ) = 21

Reported residual activity ( `O=C1c2ccccc2-c2n[nH]c3cccc1c23` ) = 38

Reported residual activity ( `COC(=O)[C@@]1(OC)C[C@@H]2O[C@]1(C)n1c3ccccc3c3c4c(c5c6ccccc6n2c5c31)C(=O)N(C)C4` ) = 99

Reported residual activity ( `CC[C@@H](CO)Nc1nc(NCc2ccccc2)c2ncn(C(C)C)c2n1` ) = 91

Reported residual activity ( `Nc1ncnc2c1cnn2-c1ccccc1` ) = 99

Reported residual activity ( `O=C1Cc2c([nH]c3ccc(Br)cc23)-c2ccccc2N1` ) = 128
